All values here come from ChEMBL document CHEMBL3108676.

System: LLC-PK1
Experiment: Apparent permeability across apical to basolateral side in pig LLC-PK1 cells
Type: ADME, cell-based, Sus scrofa
Settings: llc-pk1
Measured Attribute: Papp (×10⁻⁶ cm/s)
Numbers only here, please. The scale is ×10⁻⁶ cm/s.

Requested read-out: Papp. Entry: COCCOc1ccn2c(-c3ccc4cccc(O[C@@H]5CCNC[C@H]5F)c4n3)cnc2c1
3.7

----------
Listing of recorded IC50 by entry.
Molecular target: Macrophage colony-stimulating factor 1 receptor (Homo sapiens, UniProt P07333)
Sequence (P07333 whole entry): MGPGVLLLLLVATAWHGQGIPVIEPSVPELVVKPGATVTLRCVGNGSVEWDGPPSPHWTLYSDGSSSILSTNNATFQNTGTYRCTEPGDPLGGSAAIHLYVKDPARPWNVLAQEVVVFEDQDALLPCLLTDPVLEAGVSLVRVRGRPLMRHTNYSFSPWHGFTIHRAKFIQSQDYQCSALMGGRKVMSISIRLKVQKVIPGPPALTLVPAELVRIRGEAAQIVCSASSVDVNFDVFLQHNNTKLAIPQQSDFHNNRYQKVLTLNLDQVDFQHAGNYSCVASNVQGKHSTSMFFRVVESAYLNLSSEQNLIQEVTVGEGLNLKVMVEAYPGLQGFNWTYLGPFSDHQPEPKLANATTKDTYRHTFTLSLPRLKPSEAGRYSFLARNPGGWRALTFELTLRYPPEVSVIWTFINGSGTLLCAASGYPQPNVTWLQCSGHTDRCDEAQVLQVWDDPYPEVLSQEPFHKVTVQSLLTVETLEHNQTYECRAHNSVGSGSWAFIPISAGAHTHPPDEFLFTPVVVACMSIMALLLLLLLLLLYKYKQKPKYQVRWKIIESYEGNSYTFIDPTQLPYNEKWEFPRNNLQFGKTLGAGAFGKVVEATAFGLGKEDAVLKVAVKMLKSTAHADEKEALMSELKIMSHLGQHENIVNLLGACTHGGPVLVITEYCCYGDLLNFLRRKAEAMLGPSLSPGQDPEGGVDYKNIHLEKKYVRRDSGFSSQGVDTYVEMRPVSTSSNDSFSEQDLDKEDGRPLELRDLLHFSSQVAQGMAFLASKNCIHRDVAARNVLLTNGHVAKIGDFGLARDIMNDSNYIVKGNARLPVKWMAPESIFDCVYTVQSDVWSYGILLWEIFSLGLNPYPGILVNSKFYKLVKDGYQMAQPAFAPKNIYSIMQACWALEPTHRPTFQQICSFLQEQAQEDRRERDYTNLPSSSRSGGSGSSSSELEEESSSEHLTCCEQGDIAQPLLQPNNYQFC

Examples from the recorded data:
1. COCCOc1ccn2c(-c3ccc4cccc(O[C@@H]5CN[C@H](C(=O)OC)C5)c4n3)cnc2c1 ... > 1000 nM
2. COCCOc1ccn2c(-c3ccc4cccc(OCc5cnc[nH]5)c4n3)cnc2c1 ... > 1000 nM
3. COCCOc1ccn2c(-c3ccc4cccc(OCC5CNCCO5)c4n3)cnc2c1 (racemic) ... > 1000 nM
4. COCCOc1ccn2c(-c3ccc4cccc(OCC5CCNCC5)c4n3)cnc2c1 ... > 1000 nM

API: the following record is the query input.
Requested read-out: IC50. Entry: COCCOc1ccn2c(-c3ccc4cccc(O[C@@H]5CNC[C@H]5OC)c4n3)cnc2c1 (racemic)
> 1000 nM

----------
Assay: Apparent permeability across apical to basolateral side in pig LLC-PK1 cells
Type: ADME, cell-based, Sus scrofa
Conditions: LLC-PK1
Listing of recorded Papp A→B by entry.
Numbers only here, please. The scale is ×10⁻⁶ cm/s.

1) COCCOc1ccn2c(-c3ccc4cccc(OC5CCNCC5)c4n3)cnc2c1 ... 16.3
2) COCCOc1ccn2c(-c3ccc4cccc(O[C@@H]5CCNC[C@H]5F)c4n3)cnc2c1 (relative stereo) ... 4.4

Requested read-out: Papp A→B. Entry: COCCOc1ccn2c(-c3ccc4cccc(O[C@@H]5CCNC[C@@H]5F)c4n3)cnc2c1 (relative stereo)
2.7

----------
Assay: Solubility of the compound
Assay type: physicochemical
Measured Attribute: solubility

Requested read-out: solubility. Entry: COCCOc1ccn2c(-c3ccc4cccc(OC5CCNCC5)c4n3)cnc2c1
> 1000 µg/mL

----------
Target: Platelet-derived growth factor receptor beta (Mus musculus, UniProt P05622)
Sequence (P05622 whole entry): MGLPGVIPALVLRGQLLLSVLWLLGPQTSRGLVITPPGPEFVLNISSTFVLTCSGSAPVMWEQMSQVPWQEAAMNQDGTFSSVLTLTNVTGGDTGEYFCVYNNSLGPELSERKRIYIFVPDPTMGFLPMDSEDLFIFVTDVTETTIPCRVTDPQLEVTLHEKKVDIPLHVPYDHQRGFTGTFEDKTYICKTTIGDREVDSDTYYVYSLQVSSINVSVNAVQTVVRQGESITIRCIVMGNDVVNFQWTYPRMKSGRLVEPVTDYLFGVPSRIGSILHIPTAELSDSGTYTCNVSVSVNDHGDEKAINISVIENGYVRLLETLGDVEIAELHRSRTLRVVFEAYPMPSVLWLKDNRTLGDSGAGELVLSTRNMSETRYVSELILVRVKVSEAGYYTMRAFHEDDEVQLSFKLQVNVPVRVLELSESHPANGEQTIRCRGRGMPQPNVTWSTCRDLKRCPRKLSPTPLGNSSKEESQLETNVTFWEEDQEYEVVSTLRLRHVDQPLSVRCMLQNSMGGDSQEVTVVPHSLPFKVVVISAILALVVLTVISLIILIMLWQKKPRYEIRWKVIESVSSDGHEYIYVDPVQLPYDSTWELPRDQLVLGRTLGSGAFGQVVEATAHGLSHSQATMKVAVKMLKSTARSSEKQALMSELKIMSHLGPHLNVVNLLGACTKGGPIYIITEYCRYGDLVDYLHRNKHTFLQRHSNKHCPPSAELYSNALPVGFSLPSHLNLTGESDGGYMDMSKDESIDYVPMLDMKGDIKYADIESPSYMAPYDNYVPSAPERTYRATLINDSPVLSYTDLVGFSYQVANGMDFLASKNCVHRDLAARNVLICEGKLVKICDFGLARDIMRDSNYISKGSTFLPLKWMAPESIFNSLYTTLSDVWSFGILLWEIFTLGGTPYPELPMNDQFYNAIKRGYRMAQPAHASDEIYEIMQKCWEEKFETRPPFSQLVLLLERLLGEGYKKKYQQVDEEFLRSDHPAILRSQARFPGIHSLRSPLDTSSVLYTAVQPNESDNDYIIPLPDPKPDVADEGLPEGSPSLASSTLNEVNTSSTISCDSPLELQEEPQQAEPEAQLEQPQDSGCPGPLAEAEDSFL
Assay: Inhibition of PDGF-induced PDGFRbeta phosphorylation in mouse NIH3T3 cells incubated for 1 hr prior to PDGF induction measured after 15 mins by fluorescence assay in presence of 50% human plasma
Type: cell-based
Listing of recorded pIC50 by entry.
The read-out pIC50 is expressed as -log10 of concentration in moles per litre.

1. COCCOc1ccn2c(-c3ccc4cccc(O[C@@H]5CCNC[C@H]5F)c4n3)cnc2c1 ... 7.15

Requested read-out: pIC50. Entry: COCCOc1ccn2c(-c3ccc4cccc(OCC5CCNC5)c4n3)cnc2c1 (racemic)
7.54

----------
Tested on: MDR1
Experiment: Apparent permeability across apical to basolateral side in pig LLC-PK1 cells expressing MDR1 assessed as compound recovery
Type: ADME, cell-based, Sus scrofa
Details: read-out: Papp
Listing of recorded recovery by entry.
Numbers only here, please. The scale is %.

Examples from the recorded data:
1) COCCOc1ccn2c(-c3ccc4cccc(OC5CCNCC5)c4n3)cnc2c1 ... 50
2) COCCOc1ccn2c(-c3ccc4cccc(O[C@@H]5CCNC[C@H]5F)c4n3)cnc2c1 (relative stereo) ... 30

API: the following record is the query input.
Requested read-out: recovery. Entry: COCCOc1ccn2c(-c3ccc4cccc(O[C@@H]5CCNC[C@@H]5F)c4n3)cnc2c1 (relative stereo)
30

----------
Biological target: Platelet-derived growth factor receptor beta (Mus musculus, UniProt P05622)
Assay: Inhibition of PDGF-induced PDGFRbeta phosphorylation in mouse NIH3T3 cells incubated for 1 hr prior to PDGF induction measured after 15 mins by fluorescence assay in presence of 50% human plasma
Type: cell-based
Measured Attribute: pIC50
The read-out pIC50 is expressed as -log10 of concentration in moles per litre.

Requested read-out: pIC50. Entry: COCCOc1ccn2c(-c3ccc4cccc(O[C@H]5CCNC[C@@H]5F)c4n3)cnc2c1
7.26

Check COCCOc1ccn2c(-c3ccc4cccc(OC5CCNCC5)c4n3)cnc2c1 too.
7.60

Check COCCOc1ccn2c(-c3ccc4cccc(O[C@@H]5CCNC[C@@H]5F)c4n3)cnc2c1 (relative stereo) too.
7.60

Check COCCOc1ccn2c(-c3ccc4cccc(O[C@@H]5CCNC[C@H]5F)c4n3)cnc2c1 (relative stereo) too.
7.20

----------
Assay: Dissociation constant, pKa of the compound
Format: physicochemical
Listing of recorded pKa by entry.

Requested read-out: pKa. Entry: COCCOc1ccn2c(-c3ccc4cccc(OC5CCNCC5)c4n3)cnc2c1
9.3

Check COCCOc1ccn2c(-c3ccc4cccc(O[C@@H]5CCNC[C@H]5F)c4n3)cnc2c1 (relative stereo) too.
7.4

Check COCCOc1ccn2c(-c3ccc4cccc(O[C@@H]5CCNC[C@@H]5F)c4n3)cnc2c1 (relative stereo) too.
7.5

----------
Biological target: Cytochrome P450 2D6 (Homo sapiens, UniProt P10635)
Sequence (P10635 whole entry): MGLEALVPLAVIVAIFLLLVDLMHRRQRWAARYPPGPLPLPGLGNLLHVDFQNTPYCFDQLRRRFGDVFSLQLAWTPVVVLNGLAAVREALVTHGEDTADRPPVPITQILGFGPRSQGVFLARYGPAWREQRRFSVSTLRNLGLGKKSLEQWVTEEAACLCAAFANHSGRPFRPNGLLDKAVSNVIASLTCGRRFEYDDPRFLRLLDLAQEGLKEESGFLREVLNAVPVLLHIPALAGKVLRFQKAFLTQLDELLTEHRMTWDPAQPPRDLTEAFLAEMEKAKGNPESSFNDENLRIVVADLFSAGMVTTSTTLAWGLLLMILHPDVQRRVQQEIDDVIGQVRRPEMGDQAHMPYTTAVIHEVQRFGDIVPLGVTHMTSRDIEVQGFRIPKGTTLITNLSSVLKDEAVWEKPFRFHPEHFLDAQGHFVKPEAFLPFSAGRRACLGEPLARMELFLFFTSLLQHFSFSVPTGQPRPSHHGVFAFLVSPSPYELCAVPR
Measured Attribute: IC50

Requested read-out: IC50. Entry: COCCOc1ccn2c(-c3ccc4cccc(O[C@@H]5CCNC[C@H]5F)c4n3)cnc2c1 (relative stereo)
> 10 µM
